Target: p-Akt1 in LNCaP cells (Homo sapiens, UniProt P31749)
Construct: SureFire assays to detect cellular p-Akt1, p-Akt2 and p-Akt3 levels in WM115 cells (Akt2/3) and LNCaP cells (Akt1); endogenous in cells; host or cells: LNCaP (ECACC 89110211)
Sequence (P31749 whole entry): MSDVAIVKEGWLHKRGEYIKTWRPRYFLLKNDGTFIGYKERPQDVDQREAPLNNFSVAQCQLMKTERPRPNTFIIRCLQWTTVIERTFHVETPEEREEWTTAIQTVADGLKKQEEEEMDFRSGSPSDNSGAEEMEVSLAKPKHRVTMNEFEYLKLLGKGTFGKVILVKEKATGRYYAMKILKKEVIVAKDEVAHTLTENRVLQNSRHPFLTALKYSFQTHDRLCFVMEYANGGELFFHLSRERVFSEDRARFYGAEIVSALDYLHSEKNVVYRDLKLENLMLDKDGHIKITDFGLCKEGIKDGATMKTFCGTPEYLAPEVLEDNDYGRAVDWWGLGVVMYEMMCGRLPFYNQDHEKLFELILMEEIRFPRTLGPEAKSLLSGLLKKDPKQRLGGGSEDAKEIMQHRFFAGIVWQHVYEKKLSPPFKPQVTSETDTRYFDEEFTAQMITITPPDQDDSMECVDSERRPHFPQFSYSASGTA
Test: Phospho-Akt cellular SureFire assay, p-Akt1 in LNCaP cells
Assay type: cell-based
Settings: read-out: Biological Assay 2 IC50 (nM) Akt1 LNCaP
Measured attribute: IC50

Here are 5 molecules together with their reported answers.
[[record]]
structure_notation = "CC(=O)N(CC(F)(F)F)[C@H]1CC[C@H](CC(=O)Nc2cc(-c3ccccc3)c(-c3ccc([C@]4(N)C[C@](C)(O)C4)cc3)cn2)CC1"
target_or_system = "p-Akt1 in LNCaP cells (Homo sapiens, UniProt P31749)"
experimental_value = "12000 nM"

[[record]]
structure_notation = "CN(C(=O)C(F)F)[C@H]1CC[C@H](CC(=O)Nc2cnc(-c3ccc(C(C)(C)N)cc3)c(-c3ccccc3)c2)CC1"
target_or_system = "p-Akt1 in LNCaP cells (Homo sapiens, UniProt P31749)"
experimental_value = "> 30000 nM"

[[record]]
structure_notation = "CN([C@H]1CC[C@H](CC(=O)Nc2cnc(-c3ccc(C(C)(C)N)cc3)c(-c3ccccc3)c2)CC1)S(C)(=O)=O"
target_or_system = "p-Akt1 in LNCaP cells (Homo sapiens, UniProt P31749)"
experimental_value = "> 15000 nM"

[[record]]
structure_notation = "COC(=O)N(C)[C@H]1CC[C@H](CC(=O)Nc2cc(-c3ccsc3)c(-c3ccc(C(C)(C)N)cc3)nn2)CC1"
target_or_system = "p-Akt1 in LNCaP cells (Homo sapiens, UniProt P31749)"
experimental_value = "> 30000 nM"

[[record]]
structure_notation = "CC(=O)N(C)[C@H]1CC[C@H](CC(=O)Nc2cnc(-c3ccc(C(C)(C)N)cc3)c(-c3ccsc3)c2)CC1"
target_or_system = "p-Akt1 in LNCaP cells (Homo sapiens, UniProt P31749)"
experimental_value = "> 30000 nM"


Next:
Query: State its IC50 for this molecule: `CCOC(=O)N(C)[C@H]1CC[C@H](CC(=O)Nc2cc(-c3ccccc3)c(-c3ccc([C@]4(N)C[C@](C)(O)C4)cc3)nn2)CC1`
Result: 2400 nM

###

Known IC50 of a selection of compounds
Biological target: p-Akt2 in WM115 cells (Homo sapiens, UniProt P31751)
Construct: SureFire assays to detect cellular p-Akt1, p-Akt2 and p-Akt3 levels in WM115 cells (Akt2/3) and LNCaP cells (Akt1); endogenous in cells; host or cells: WM115 (ECACC 91061232), insulin-stimulated
Sequence (P31751 whole entry): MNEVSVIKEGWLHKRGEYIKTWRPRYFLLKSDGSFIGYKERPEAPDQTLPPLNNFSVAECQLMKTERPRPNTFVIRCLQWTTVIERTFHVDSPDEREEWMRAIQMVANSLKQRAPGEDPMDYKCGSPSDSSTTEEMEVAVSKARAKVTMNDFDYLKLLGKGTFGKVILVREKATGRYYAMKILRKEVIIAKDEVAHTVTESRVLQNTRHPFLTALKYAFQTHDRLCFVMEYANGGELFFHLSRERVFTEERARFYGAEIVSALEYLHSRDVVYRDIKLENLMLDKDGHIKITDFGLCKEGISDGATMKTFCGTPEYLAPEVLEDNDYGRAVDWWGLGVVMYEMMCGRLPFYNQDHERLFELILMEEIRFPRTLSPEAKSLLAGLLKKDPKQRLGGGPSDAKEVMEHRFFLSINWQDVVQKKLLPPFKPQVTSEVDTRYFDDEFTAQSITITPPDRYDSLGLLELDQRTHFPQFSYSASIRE
Experiment: Phospho-Akt cellular SureFire assay, p-Akt2 in WM115 cells
Format: cell-based
Conditions: insulin stimulated, read-out: Biological Assay 2 IC50 (nM) Akt2 WM115
Report the figure in nM without appending any unit label.

Here are 2 compounds together with their reported answers.
[[record]]
compound = "CN([C@H]1CC[C@H](CC(=O)Nc2cnc(-c3ccc(C(C)(C)N)cc3)c(-c3ccccc3F)c2)CC1)S(C)(=O)=O [Example A26]"
measured_attribute = "IC50"
experimental_value = 7000

[[record]]
compound = "NC1(c2ccc(-c3nnc(NC(=O)C[C@H]4CC[C@H](N5CCOC5=O)CC4)cc3-c3ccccc3)cc2)CCC1 [Example 66]"
measured_attribute = "IC50"
experimental_value = 940


Query: State its IC50 for this compound: COC(=O)N(C)[C@H]1CC[C@H](CC(=O)Nc2cc(-c3ccccc3)c(-c3ccc([C@]4(N)C[C@H](F)C4)cc3)nn2)CC1 [Example A60]
Result: 15000

Query: State its IC50 for this compound: COC(=O)N(C)[C@H]1CC[C@H](C(C)C(=O)Nc2cnc(-c3ccc(C(C)(C)N)cc3)c(-c3ccccc3)c2)CC1 (stereo partly shown) [Example A45]
Result: 12000

Query: State its IC50 for this compound: CCN(C(=O)OC)[C@H]1CC[C@H](CC(=O)Nc2cc(-c3ccccc3)c(-c3ccc([C@]4(N)C[C@](C)(O)C4)cc3)cn2)CC1 [Example 116]
Result: 1400

Query: State its IC50 for this compound: CC(=O)N(C)[C@H]1CC[C@H](CC(=O)Nc2cc(-c3ccccc3F)c(-c3ccc(C4(N)CCC4)cc3)cn2)CC1 [Example A62]
Result: 1200

Query: State its IC50 for this compound: C[C@]1(O)C[C@@](N)(c2ccc(-c3cnc(NC(=O)C[C@H]4CC[C@H](N5CCOC5=O)CC4)cc3-c3ccccc3)cc2)C1 [Example A57]
Result: 360

Query: State its IC50 for this compound: CN(C(=O)C1CC1)[C@H]1CC[C@H](CC(=O)Nc2cc(-c3ccccc3)c(-c3ccc([C@]4(N)C[C@H](F)C4)cc3)nn2)CC1 [Example 71]
Result: 1300

Query: State its IC50 for this compound: CC(=O)N(C)[C@H]1CC[C@H](CC(=O)Nc2cnc(-c3ccc(C(C)(C)N)cc3)c(-c3ccccc3)c2)CC1 [Example 3]
Result: 10000

Query: State its IC50 for this compound: CC(=O)N(C(C)C)[C@H]1CC[C@H](CC(=O)Nc2cc(-c3ccccc3)c(-c3ccc([C@]4(N)C[C@](C)(O)C4)cc3)cn2)CC1 [Example 102]
Result: 1700

Query: State its IC50 for this compound: CN(C(=O)C1CCC1)[C@H]1CC[C@H](CC(=O)Nc2cnc(-c3ccc(C(C)(C)N)cc3)c(-c3ccccc3)c2)CC1 [Example 47]
Result: 5300

Query: State its IC50 for this compound: CN(C(=O)C1CC1)[C@H]1CC[C@H](CC(=O)Nc2cc(-c3ccccc3)c(-c3ccc(C4(N)CCC4)cc3)cn2)CC1 [Example A72]
Result: 3500

Query: State its IC50 for this compound: CC(=O)N(C)[C@H]1CC[C@H](CC(=O)Nc2cnc(-c3ccc(C4(N)CC(F)(F)C4)cc3)c(-c3ccccc3)c2)CC1 [Example 5]
Result: 3000

Query: State its IC50 for this compound: CCOC(=O)N(C)[C@H]1CC[C@H](CC(=O)Nc2cc(-c3ccccc3)c(-c3ccc([C@]4(N)C[C@](C)(O)C4)cc3)nn2)CC1 [Example A80]
Result: 710

Query: State its IC50 for this compound: CC(=O)N(C)[C@H]1CC[C@H](CC(=O)Nc2cnc(-c3ccc(C(C)(C)N)cc3)c(-c3ccccc3F)c2)CC1 [Example 9]
Result: 3500

Query: State its IC50 for this compound: CC(=O)N[C@H]1CC[C@H](CC(=O)Nc2cnc(-c3ccc(C4(N)CCC4)cc3)c(-c3ccccc3)c2)CC1 [Example A38]
Result: 1600

Query: State its IC50 for this compound: CCC(=O)N(C(C)C)[C@H]1CC[C@H](CC(=O)Nc2cc(-c3ccccc3)c(-c3ccc([C@]4(N)C[C@](C)(O)C4)cc3)nn2)CC1 [Example 104]
Result: 1300

Query: State its IC50 for this compound: CC(=O)N(C)[C@H]1CC[C@H](CC(=O)Nc2cc(-c3ccccc3)c(-c3ccc(C4(N)CC4)cc3)nn2)CC1 [Example 72]
Result: 1400

Query: State its IC50 for this compound: CC(=O)N(C)[C@H]1CC[C@H](CC(=O)Nc2cc(-c3ccccc3F)c(-c3ccc([C@]4(N)C[C@](C)(O)C4)cc3)cn2)CC1 [Example 94]
Result: 550

###

Target: Akt2 (Homo sapiens, UniProt P31751)
Construct: unspecified tag, removed (detagged) (cleaved yes); purchased SignalChem and Proteros (Akt2); Merck Millipore (PDK1) 14-452 (PDK1); none given for Akt2
Sequence (P31751 whole entry): as above
Assay: Akt activation assay (PDK1-mediated activation, LANCE Ultra crosstide TR-FRET), Akt2
Assay type: biochemical
Conditions: read-out: Biological Assay 1 IC50 (nM) Akt2
Known IC50 of a selection of compounds
Report the figure in nM without appending any unit label.

Here are 2 compounds together with their reported answers.
[[record]]
structure_notation = "CCC(=O)N(C)[C@H]1CC[C@H](CC(=O)Nc2cc(-c3ccccc3)c(-c3ccc([C@]4(N)C[C@](C)(O)C4)cc3)cn2)CC1"
quantity_unit = "nM"
experimental_value = 130

[[record]]
structure_notation = "CCC(=O)N(CC)[C@H]1CC[C@H](CC(=O)Nc2cc(-c3ccccc3)c(-c3ccc([C@]4(N)C[C@](C)(O)C4)cc3)nn2)CC1"
quantity_unit = "nM"
experimental_value = 130


Next:
Query: State its IC50 for this compound: `CN(C(=O)C(F)F)[C@H]1CC[C@H](CC(=O)Nc2cc(-c3ccccc3)c(-c3ccc([C@]4(N)C[C@](C)(O)C4)cc3)cn2)CC1`
Result: 220

###

Target: Akt3 (Homo sapiens, UniProt Q9Y243)
Construct: unspecified tag, removed (detagged) (cleaved yes); purchased SignalChem and Proteros (Akt3); Merck Millipore (PDK1) 14-452 (PDK1); none given for Akt3
Sequence (Q9Y243 whole entry): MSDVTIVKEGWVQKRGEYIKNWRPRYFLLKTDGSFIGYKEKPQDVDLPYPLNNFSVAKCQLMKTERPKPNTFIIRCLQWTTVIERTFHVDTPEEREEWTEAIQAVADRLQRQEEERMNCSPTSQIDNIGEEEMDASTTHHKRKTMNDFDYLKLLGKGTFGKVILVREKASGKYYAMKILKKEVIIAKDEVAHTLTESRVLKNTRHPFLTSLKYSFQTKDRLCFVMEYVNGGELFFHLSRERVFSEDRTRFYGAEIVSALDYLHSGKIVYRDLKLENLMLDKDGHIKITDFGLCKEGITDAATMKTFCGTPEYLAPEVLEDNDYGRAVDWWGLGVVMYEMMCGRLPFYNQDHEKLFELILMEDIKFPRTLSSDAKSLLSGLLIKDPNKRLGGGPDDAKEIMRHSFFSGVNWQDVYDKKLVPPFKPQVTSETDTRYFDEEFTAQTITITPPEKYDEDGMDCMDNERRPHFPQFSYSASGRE
Test: Akt activation assay (PDK1-mediated activation, LANCE Ultra crosstide TR-FRET), Akt3
Type: biochemical
Conditions: read-out: Biological Assay 1 IC50 (nM) Akt3
Measured attribute: IC50
Answer with the figure and its unit, nothing else.

Here are 2 compounds together with their reported answers.
[[record]]
structure_notation = "CCC(=O)N(C)[C@H]1CC[C@H](CC(=O)Nc2cc(-c3ccccc3)c(-c3ccc(C(C)(C)N)cc3)nn2)CC1"
target_or_system = "Akt3 (Homo sapiens, UniProt Q9Y243)"
experimental_value = "51 nM"

[[record]]
structure_notation = "CC(C)(C(=O)N[C@H]1CC[C@H](CC(=O)Nc2cnc(-c3ccc(C4(N)COC4)cc3)c(-c3ccccc3)c2)CC1)C(F)(F)F"
target_or_system = "Akt3 (Homo sapiens, UniProt Q9Y243)"
experimental_value = "130 nM"


Query: State its IC50 for this compound: `COC(=O)N[C@H]1CC[C@H](CC(=O)Nc2cc(-c3ccccc3)c(-c3ccc(C4(N)CC4)c(F)c3)cn2)CC1`
Result: 750 nM
